System: human umbilical vein endothelial cells HUVEC
Assay: MTT cytotoxicity on normal cells, HUVEC
Details: read-out: IC50, cytotoxicity on normal cell line; HUVEC, MTT assay
recorded_endpoint: IC50 (nM)
Give your result in nM as a bare value.

Recorded results for 3 molecules are shown here.
{"molecule": "CCC1(O)CC2CN(CCc3c([nH]c4ccccc34)C(C(=O)OC)(c3cc4c(cc3OC)N(C)C3C(O)(C(=O)NNC(=O)C5CCCN5C(=O)CNC(=O)OCc5ccccc5)C(O)C5(CC)C=CCN6CCC43C65)C2)C1 (stereo not shown)", "target": "human umbilical vein endothelial cells HUVEC", "recorded_endpoint": "IC50", "unit_of_measurement": "nM", "reported_result": 129}
{"molecule": "CCC1(O)CC2CN(CCc3c([nH]c4ccccc34)C(C(=O)OC)(c3cc4c(cc3OC)N(C=O)C3C(O)(C(=O)NNC(=O)C5CCCN5C(=O)CNC(=O)OCc5ccccc5)C(O)C5(CC)C=CCN6CCC43C65)C2)C1 (stereo not shown)", "target": "human umbilical vein endothelial cells HUVEC", "recorded_endpoint": "IC50", "unit_of_measurement": "nM", "reported_result": 176}
{"molecule": "CCC12C=CCN3CCC4(c5cc(C6(C(=O)OC)CC7CC(C(C)(F)F)CN(Cc8c6[nH]c6ccccc86)C7)c(OC)cc5N(C)C4C(O)(C(=O)NNC(=O)C4CCCN4C(=O)CNC(=O)OCc4ccccc4)C1O)C32 (stereo not shown)", "target": "human umbilical vein endothelial cells HUVEC", "recorded_endpoint": "IC50", "unit_of_measurement": "nM", "reported_result": 270}

Now for another entry.
Problem: Returns the measured IC50 for the input molecule. Input: CCC1=CC2CN(C1)Cc1c([nH]c3ccccc13)C(C(=O)OC)(c1cc3c(cc1OC)N(C)C1C(O)(C(=O)NNC(=O)C4CCCN4C(=O)CNC(=O)OCc4ccccc4)C(O)C4(CC)C=CCN5CCC31C54)C2 (stereo not shown)
Solution: 167
